Tested on: RXF-393
Assay: NCI in vitro tumor cell screen, RXF-393 renal cancer
Type: cell-based
Settings: Homo sapiens
property.label: GI50 (µM)
All answers are understood in µM, so give the number only.

Briefly, GI50 measured for `COc1cccc(-c2cc(=O)c3cc(N4CCN(C)CC4)ccc3[nH]2)c1` : 0.457

Briefly, GI50 measured for `O=c1cc(-c2cccc(Br)c2)[nH]c2cc3c(cc12)OCO3` : 2.4

Briefly, GI50 measured for `COc1cccc(-c2cc(O)c3cc(N(C)C)ccc3n2)c1` : 0.0186

Briefly, GI50 measured for `CNc1cccc(-c2cc(=O)c3cc4c(cc3[nH]2)OCO4)c1` : 0.363

---

System: tubulin
Assay: inhibition of radiolabeled colchicine binding to tubulin (ICB)
Parameters: species or system bovine
Details: evaluated only when polymerization IC50 ≤ 1.0 μM; inhibitor equimolar with [3H]colchicine, 5-fold molar excess over tubulin
Answer each item with its documented ICB (% inhibition of colchicine binding).
Give your result as the value with the unit written after it.

Briefly, ICB (% inhibition of colchicine binding) measured for `O=c1cc(-c2cccc(OC(F)(F)F)c2)[nH]c2cc3c(cc12)OCO3` : 40 ± 5%

Briefly, ICB (% inhibition of colchicine binding) measured for `CNc1cccc(-c2cc(=O)c3cc4c(cc3[nH]2)OCO4)c1` : 17 ± 11%

Briefly, ICB (% inhibition of colchicine binding) measured for `O=c1cc(-c2cccc(C(F)(F)F)c2)[nH]c2cc3c(cc12)OCO3` : 5 ± 7%

Briefly, ICB (% inhibition of colchicine binding) measured for `O=c1cc(-c2cccc(F)c2)[nH]c2cc3c(cc12)OCO3` : 51 ± 3%

Briefly, ICB (% inhibition of colchicine binding) measured for `O=c1cc(-c2cccc(OCc3ccccc3)c2)[nH]c2cc3c(cc12)OCO3` : 26 ± 5%

Briefly, ICB (% inhibition of colchicine binding) measured for COc1cc([C@@H]2c3cc4c(cc3[C@H](O)[C@H]3COC(=O)[C@H]23)OCO4)cc(OC)c1OC [podophyllotoxin, reference compound] : 84 ± 2%

Briefly, ICB (% inhibition of colchicine binding) measured for `Nc1cccc(-c2cc(=O)c3cc4c(cc3[nH]2)OCO4)c1` : 16 ± 7%

Briefly, ICB (% inhibition of colchicine binding) measured for `CCOc1cccc(-c2cc(=O)c3cc4c(cc3[nH]2)OCO4)c1` : 40 ± 2%

Briefly, ICB (% inhibition of colchicine binding) measured for `CN(C)c1cccc(-c2cc(=O)c3cc4c(cc3[nH]2)OCO4)c1` : 29 ± 7%

Briefly, ICB (% inhibition of colchicine binding) measured for `COc1cccc(-c2cc(O)c3cc(Cl)ccc3n2)c1` : 16 ± 5%

Briefly, ICB (% inhibition of colchicine binding) measured for `COc1cccc(-c2cc(O)c3cc(N(C)C)ccc3n2)c1` : 14 ± 8%

Briefly, ICB (% inhibition of colchicine binding) measured for `O=c1cc(-c2cccc(Cl)c2)[nH]c2cc3c(cc12)OCO3` : 45 ± 7%

Briefly, ICB (% inhibition of colchicine binding) measured for `COc1cccc(-c2cc(O)c3cc(N4CCOCC4)ccc3n2)c1` : 43 ± 10%

Briefly, ICB (% inhibition of colchicine binding) measured for `O=c1cc(-c2cccc(OC(F)(F)F)c2)[nH]c2ccc(N3CCCC3)cc12` : 58 ± 5%

Briefly, ICB (% inhibition of colchicine binding) measured for `COc1cccc(-c2cc(=O)c3cc4c(cc3[nH]2)OCO4)c1` : 39 ± 8%

Briefly, ICB (% inhibition of colchicine binding) measured for COc1ccc(/C=C\c2cc(OC)c(OC)c(OC)c2)cc1O [combretastatin A-4, reference compound] : 94 ± 2%

Briefly, ICB (% inhibition of colchicine binding) measured for `O=c1cc(-c2ccccc2)[nH]c2cc3c(cc12)OCO3` : 26 ± 10%

Briefly, ICB (% inhibition of colchicine binding) measured for `COc1cccc(-c2cc(=O)c3cc(N4CCCCC4)ccc3[nH]2)c1` : 53 ± 6%
